# target.of.assay: purified full-length human ERβ (Homo sapiens)
# Sequence (Q92731 whole entry): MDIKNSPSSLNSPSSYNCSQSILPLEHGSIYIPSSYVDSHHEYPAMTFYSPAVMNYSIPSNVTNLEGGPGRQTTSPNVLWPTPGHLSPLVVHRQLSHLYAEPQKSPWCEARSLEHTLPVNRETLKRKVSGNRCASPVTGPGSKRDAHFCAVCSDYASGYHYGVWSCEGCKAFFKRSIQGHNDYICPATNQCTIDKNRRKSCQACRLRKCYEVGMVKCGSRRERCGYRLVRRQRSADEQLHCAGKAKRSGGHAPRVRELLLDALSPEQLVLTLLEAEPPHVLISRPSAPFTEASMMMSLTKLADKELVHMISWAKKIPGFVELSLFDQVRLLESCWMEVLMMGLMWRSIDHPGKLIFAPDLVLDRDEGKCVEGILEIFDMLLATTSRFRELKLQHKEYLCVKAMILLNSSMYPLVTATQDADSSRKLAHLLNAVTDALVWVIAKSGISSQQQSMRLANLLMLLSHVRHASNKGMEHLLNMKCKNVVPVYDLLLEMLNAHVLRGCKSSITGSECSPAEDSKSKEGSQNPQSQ
# protocol.summary: biochemical
In this section, each of the molecules is paired with its reported Ki.
Please append the unit to your numeric answer.

molecule	target.of.assay	Ki
O/N=C1\CCc2c(-c3ccccc3)ccc(O)c21 [1i]	purified full-length human ERβ (Homo sapiens)	282 nM
O/N=C1\CCc2c(-c3ccc(O)cc3)ccc(O)c21 [1a]	purified full-length human ERβ (Homo sapiens)	11.7 nM

State the recorded Ki for this entry: O/N=C1\CCc2c(-c3ccc(O)c(F)c3)ccc(O)c21 [1c]
10.6 nM
